Biological target: Human UII receptor, 6D9 human rhabdomyosarcoma cells (Homo sapiens)
Construct: 6D9: isolated by dilution subcloning of RMS13 cells, ATCC® Number: CRL-2061
Sequence (Q9UKP6 1-389): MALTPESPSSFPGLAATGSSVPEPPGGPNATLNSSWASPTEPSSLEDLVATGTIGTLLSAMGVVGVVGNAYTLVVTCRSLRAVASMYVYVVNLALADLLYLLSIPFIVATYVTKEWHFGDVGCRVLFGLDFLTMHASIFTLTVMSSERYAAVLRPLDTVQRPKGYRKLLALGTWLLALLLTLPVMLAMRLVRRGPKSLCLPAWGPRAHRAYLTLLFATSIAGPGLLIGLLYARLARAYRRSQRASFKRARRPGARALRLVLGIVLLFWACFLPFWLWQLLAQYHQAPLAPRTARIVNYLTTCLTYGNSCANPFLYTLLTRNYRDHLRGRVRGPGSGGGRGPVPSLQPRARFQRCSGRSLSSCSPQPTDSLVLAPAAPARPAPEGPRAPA
Assay: Human UII Calcium Mobilization Assay
Details: average value, FLIPR TETRA, read-out: Human UII Ca^+ Mobilization Average IC50
MEASUREMENT_LABEL: log10 IC50 (log10 of the value in nM)
All values: log10 IC50 [nM].

Report log10 IC50 for CCN1CCN(c2cccc3c2C(=O)N([C@H](CCCOCC(=O)O)c2ccc(OC)c(OC)c2)C3=O)CC1 [Cpd 218] please. 3.38

Report log10 IC50 for COc1ccc([C@@H](CCCNS(=O)(=O)c2cccs2)N2C(=O)c3cccc(N4CCN(Cc5ccoc5)CC4)c3C2=O)cc1OC [Cpd 170] please. 2.61

Report log10 IC50 for COc1ccc([C@H](CCCNS(=O)(=O)c2cccs2)N2C(=O)c3cccc(N4CCN([C@H](C)c5ccccc5)CC4)c3C2=O)cc1OC [Cpd 119] please. 2.41

Report log10 IC50 for COc1ccc([C@@H](CCCNC(=O)c2ccccn2)N2C(=O)c3cccc(N4CCN([C@H](C)c5ccccc5)CC4)c3C2=O)cc1OC [Cpd 150] please. 2.93

Report log10 IC50 for COc1ccc(C(CCCNS(=O)(=O)c2sc(NC(C)=O)nc2C)N2C(=O)c3cccc(N4CCN([C@H](C)c5ccccc5)CC4)c3C2=O)cc1OC (some centres unmarked) [Cpd 97] please. 2.85

Report log10 IC50 for CCN1CCN(c2cccc3c2C(=O)N(C(CC2CCN(Cc4ccccc4)CC2)c2ccc(OC)c(OC)c2)C3=O)CC1 (centres unmarked) [Cpd 232] please. 3.61

Report log10 IC50 for COc1ccc([C@@H](CCNS(=O)(=O)c2c(C)n[nH]c2C)N2C(=O)c3cccc(N4CCN([C@H](C)c5ccccc5)CC4)c3C2=O)cc1OC [Cpd 223] please. 2.38

Data provenance: patent US8193191B2
